settings: rat, in vivo, 15 min
Structures can show the parent of a compound that is named as a salt.
I'd be grateful if you could share measured level of free acid in blood serum for these entries.
One number for each entry, in ng/mL.

Please look at the items below and tell me level of free acid in blood serum for each one, in order.
1. CC(C)(C)C(=O)OCOC(=O)[C@@H]1N2C(=O)[C@@H](/N=C/N3CCCCCC3)[C@H]2SC1(C)C [Pivmecillinam, reference compound]
2. CC(=O)COC(=O)[C@@H]1N2C(=O)[C@@H](N=CN3CCCCCC3)[C@H]2SC1(C)C [Methylacetic ester of 6-N,N-1', 6'-hexyleneformamidine/-peni]

Key:
[15500, 42700]

Exercise: # query: level of free acid in blood serum of entry CC(=O)COC(=O)[C@@H]1N2C(=O)[C@@H](N=CN3CCCCCC3)[C@H]2SC1(C)C [Hydrochloride of methylacetic ester of 6-/N,N1', 6'-hexylene]
Key: 16400

* * *

settings: rat, in vivo, po, 1 h
attributeMeasured: level of free acid in blood serum (ng/mL)
One number for each entry, in ng/mL.

Exercise: # query: level of free acid in blood serum of entry CC1(C)S[C@@H]2[C@H](N=CN3CCCCCC3)C(=O)N2[C@H]1C(=O)O [reference compound]
Key: 1900

* * *

details: rat, in vivo, 45 min
Where a name gives a salt, the structure may show the parent alone.
attributeMeasured: level of free acid in blood serum
Param answer (str): number followed by unit.

Worked cases, level of free acid in blood serum given:
* CC(C)(C)C(=O)OCOC(=O)[C@@H]1N2C(=O)[C@@H](/N=C/N3CCCCCC3)[C@H]2SC1(C)C [Pivmecillinam, reference compound] | 16300 ng/mL
* CC(=O)COC(=O)[C@@H]1N2C(=O)[C@@H](N=CN3CCCCCC3)[C@H]2SC1(C)C [Methylacetic ester of 6-N,N-1', 6'-hexyleneformamidine/-peni] | 21200 ng/mL

Read the next record carefully.
Exercise: # query: level of free acid in blood serum of entry CC(=O)COC(=O)[C@@H]1N2C(=O)[C@@H](N=CN3CCCCCC3)[C@H]2SC1(C)C [Hydrochloride of methylacetic ester of 6-/N,N1', 6'-hexylene]
Key: 18900 ng/mL

* * *

conditions: rat, in vivo, 30 min
Where a name gives a salt, the structure may show the parent alone.
attributeMeasured: level of free acid in blood serum (ng/mL)
Answers are plain numbers, in ng/mL.

Worked cases, level of free acid in blood serum given:
- CC(C)(C)C(=O)OCOC(=O)[C@@H]1N2C(=O)[C@@H](/N=C/N3CCCCCC3)[C@H]2SC1(C)C [Pivmecillinam, reference compound]: 19200
- CC(=O)COC(=O)[C@@H]1N2C(=O)[C@@H](N=CN3CCCCCC3)[C@H]2SC1(C)C [Hydrochloride of methylacetic ester of 6-/N,N1', 6'-hexylene]: 16100

Read the next record carefully.
Exercise: # query: level of free acid in blood serum of entry CC(=O)COC(=O)[C@@H]1N2C(=O)[C@@H](N=CN3CCCCCC3)[C@H]2SC1(C)C [Methylacetic ester of 6-N,N-1', 6'-hexyleneformamidine/-peni]
Key: 21100

* * *

conditions: rat, in vivo, po, 3 h
attributeMeasured: level of free acid in blood serum

Exercise: # query: level of free acid in blood serum of entry CC1(C)S[C@@H]2[C@H](N=CN3CCCCCC3)C(=O)N2[C@H]1C(=O)O [reference compound]
Key: 1300 ng/mL

* * *

I'd be grateful if you could share measured level of free acid in blood serum for these entries.
conditions: rat, in vivo, 180 min
Structures can show the parent of a compound that is named as a salt.
Numbers only, in µg/mL.

Worked cases, level of free acid in blood serum given:
- CC(=O)COC(=O)[C@@H]1N2C(=O)[C@@H](N=CN3CCCCCC3)[C@H]2SC1(C)C [Methylacetic ester of 6-N,N-1', 6'-hexyleneformamidine/-peni]: 1.6
- CC(C)(C)C(=O)OCOC(=O)[C@@H]1N2C(=O)[C@@H](/N=C/N3CCCCCC3)[C@H]2SC1(C)C [Pivmecillinam, reference compound]: 2.1

Read the next record carefully.
Exercise: # query: level of free acid in blood serum of entry CC(=O)COC(=O)[C@@H]1N2C(=O)[C@@H](N=CN3CCCCCC3)[C@H]2SC1(C)C [Hydrochloride of methylacetic ester of 6-/N,N1', 6'-hexylene]
Key: 2.1

* * *

conditions: rat, in vivo, po, 0.75 h
attributeMeasured: level of free acid in blood serum (ng/mL)
Give bare numbers, in ng/mL.

Exercise: # query: level of free acid in blood serum of entry CC1(C)S[C@@H]2[C@H](N=CN3CCCCCC3)C(=O)N2[C@H]1C(=O)O [reference compound]
Key: 1900

* * *

details: rat, in vivo, 360 min
Counter-ions that a name gives are not always drawn.
attributeMeasured: level of free acid in blood serum
Param answer (str): number followed by unit.

* CC(=O)COC(=O)[C@@H]1N2C(=O)[C@@H](N=CN3CCCCCC3)[C@H]2SC1(C)C [Hydrochloride of methylacetic ester of 6-/N,N1', 6'-hexylene] | 100 ng/mL
* CC(=O)COC(=O)[C@@H]1N2C(=O)[C@@H](N=CN3CCCCCC3)[C@H]2SC1(C)C [Methylacetic ester of 6-N,N-1', 6'-hexyleneformamidine/-peni] | 300 ng/mL

Exercise: # query: level of free acid in blood serum of entry CC(C)(C)C(=O)OCOC(=O)[C@@H]1N2C(=O)[C@@H](/N=C/N3CCCCCC3)[C@H]2SC1(C)C [Pivmecillinam, reference compound]
Key: 1100 ng/mL

This collection of values is drawn from patent US4341779A.
